- Tested on: BT-549 breast
- Assay Protocol: NCI tumour cell line growth inhibition, 48 h
Classification scheme (TGI): lo = under 9 µM, mid = from 9 µM up to 40 µM, hi = 40 µM and over

*Q* State the class of the compound shown: O=C1C(Cl)=C(Nc2cccc(O)c2)C(=O)N1c1cccc(Cl)c1Cl
*A* hi

*Q* State the class of the compound shown: COc1cc(OC)nc(Nc2c(C#N)c3nc4ccccc4n3c3ccccc23)n1
*A* hi

*Q* State the class of the compound shown: Nc1c(C(=O)Nc2ccccc2)sc2nc3c(cc12)CCCC3
*A* hi

*Q* State the class of the compound shown: Cc1nn(-c2ccc(Br)cc2)c(C)c1CC(=O)c1cc(O)ccc1O
*A* mid

*Q* State the class of the compound shown: C[C@@]1(N2C(=O)OC[C@@H]2c2ccccc2)C(=O)N([C@H](CC(=O)N2CCC(N3CCCCC3)CC2)C(=O)NCc2cccc(C(F)(F)F)c2)[C@@H]1/C=C/c1ccccc1
*A* mid

*Q* State the class of the compound shown: COC(=O)[C@@H]1C[C@]2(CC=C(C)C)c3ccccc3N(S(=O)(=O)c3ccccc3)[C@@H]2N1C(=O)OC
*A* hi

*Q* State the class of the compound shown: COc1c(O)cc(C(=O)O[C@@H]2Cc3c(O)cc(O)cc3O[C@@H]2c2cc(O)c(O)c(O)c2)cc1O
*A* hi

*Q* State the class of the compound shown: Cc1nn(C)c2c1C(=O)N(C)CC(=O)N2C
*A* hi

*Q* State the class of the compound shown: CP(C)(=S)P(C)(C)=S
*A* hi

*Q* State the class of the compound shown: Oc1cc2ccccc2cc1-c1n[nH]c(=S)n1-c1ccc(Cl)cc1
*A* hi

*Q* State the class of the compound shown: C=C(C(=O)O)[C@@H]1C[C@@H]2O[C@H]1CC(C)=CCC/C(C)=C/CC[C@@]2(C)O
*A* hi

*Q* State the class of the compound shown: Cc1ccc(NC(=O)c2nc(S(C)=O)oc2-c2ccc(F)cc2)cc1Nc1nccc(-c2cccnc2)n1 (centres undefined)
*A* lo

*Q* State the class of the compound shown: C=C1C(=O)OC2/C=C(\C)C3OC3/C=C(/C(=O)OC)C(OC(C)=O)C(OC(=O)C(C)(O)C(C)OC(C)=O)C12 (centres undefined)
*A* lo

*Q* State the class of the compound shown: O=[N+]([O-])c1ccc(-c2cn(-c3ccc(Cl)cc3)cn2)cc1
*A* hi

*Q* State the class of the compound shown: CC1(C)O[C@@H]2[C@@H]3OC(=O)C[C@@H]3[C@@H](COCc3ccccc3)[C@@H]2O1
*A* hi

*Q* State the class of the compound shown: c1ccc2c(c1)C(=Nc1ccc(N=C3c4ccccc4-c4ccccc43)cc1)c1ccccc1-2
*A* hi

*Q* State the class of the compound shown: S=C(N/N=C(/c1ccccc1)c1ccccn1)Nc1cccc(Cl)c1
*A* lo

*Q* State the class of the compound shown: CC(=O)Nc1sc2c(c1-c1nc3ccccc3s1)CNC2
*A* mid

*Q* State the class of the compound shown: C[C@]12CC[C@H]3[C@@H](C[C@@H]4N=C(c5ccc(O)cc5)S[C@@]45C[C@H](O)CC[C@]35C)[C@@H]1CC[C@@H]2O
*A* mid

====

- Tested on: LOX IMVI melanoma
- Assay Protocol: NCI tumour cell line growth inhibition, 48 h
*1 amine or outer side, *2 acyl side, *3 side chain or, on linkers, in order; H or OH if unused. Where a SMILES comes first, the peptide text is derived from it. Bridges are numbered along the chain shown (N, C = ends). [ ]: non-standard residue; d: D form. The star is where a group is joined. Phe(3-Me) = Cc1cccc(C[C@H](N)C(=O)O)c1; NH(4-Cl-2-F-phenyl) = Fc1cc(Cl)ccc1N*; Pro(4R-Me) = C[C@H]1CN[C@H](C(=O)O)C1; Propanoyl(3-NMe2) = CN(C)CCC(=O)*; Hyp = O=C(O)[C@@H]1C[C@@H](O)CN1; aThr = C[C@H](O)[C@H](N)C(=O)O; Pip = O=C(O)[C@@H]1CCCCN1; CO = O=C([*:1])[*:2]
Assign GI50 to each entry below.

*Q* Param item = O=C(CN1CCN(c2ccc(Cl)cc2)CC1)N1CCN(c2nnc(-c3ccccc3)c(-c3ccccc3)n2)CC1 ; retrieve measured GI50.
*A* 7260 nM

*Q* Param item = C=C1N(C)c2ccc(Cl)cc2C1(C)C ; retrieve measured GI50.
*A* 6980 nM

*Q* Param item = CCCN1CCN(c2ccc3nc(-c4ccc5nc(-c6ccc(OCC)c(OCC)c6)[nH]c5c4)[nH]c3c2)CC1 ; retrieve measured GI50.
*A* 198 nM

*Q* Param item = Oc1cc2ccccc2cc1-c1n[nH]c(=S)n1-c1ccc(Cl)cc1 ; retrieve measured GI50.
*A* 11200 nM

*Q* Param item = Cc1cccc(C[C@H](NC(=O)Nc2ccc(Cl)cc2F)C(=O)N[C@@H]2C(=O)N3C[C@H](OC(=O)CCN(C)C)C[C@H]3C(=O)N3CCCC[C@H]3C(=O)N[C@@H](C)C(=O)N3C[C@H](C)C[C@H]3C(=O)O[C@H]2C)c1 ({NH(4-Cl-2-F-phenyl)-CO}-[Phe(3-Me)][aThr][Hyp](Propanoyl(3-NMe2))[Pip]A[Pro(4R-Me)]; ester 2-C) ; retrieve measured GI50.
*A* 683 nM

*Q* Param item = Cc1ccc(NC(=O)c2nc(S(C)=O)oc2-c2ccc(F)cc2)cc1Nc1nccc(-c2cccnc2)n1 (centres undefined) ; retrieve measured GI50.
*A* 1220 nM

*Q* Param item = C[C@@]1(N2C(=O)OC[C@@H]2c2ccccc2)C(=O)N([C@H](CC(=O)N2CCC(N3CCCCC3)CC2)C(=O)NCc2cccc(C(F)(F)F)c2)[C@@H]1/C=C/c1ccccc1 ; retrieve measured GI50.
*A* 1810 nM

*Q* Param item = Cc1nn(-c2ccc(Br)cc2)c(C)c1CC(=O)c1cc(O)ccc1O ; retrieve measured GI50.
*A* 4130 nM

*Q* Param item = Nc1nc2c(c3cnccc13)C(c1cccc(Cl)c1)Cc1cnccc1-2 (centres undefined) ; retrieve measured GI50.
*A* 373 nM

====

- Test system: DU-145 prostate
- Assay Protocol: NCI tumour cell line growth inhibition, 48 h
Measured Parameter: TGI

*Q* Param item = CC1(C)C2CCC1(CC(=O)O)C(Cl)C2 (stereo unspecified) ; retrieve measured TGI.
*A* > 100 µM

*Q* Param item = Cc1ccc(NC(=O)c2nc(S(C)=O)oc2-c2ccc(F)cc2)cc1Nc1nccc(-c2cccnc2)n1 (stereo unspecified) ; retrieve measured TGI.
*A* 3.75 µM

*Q* Param item = COC1(C)C=NCC(C)(C)NC(=O)C(C)(OC)C=NCC(C)(C)NC1=O (stereo unspecified) ; retrieve measured TGI.
*A* > 10 µM

*Q* Param item = CP(C)(=S)P(C)(C)=S ; retrieve measured TGI.
*A* > 100 µM

*Q* Param item = O=C1NN(c2ccccc2)C(=O)C2C3c4ccccc4C(c4ccccc43)C12 (stereo unspecified) ; retrieve measured TGI.
*A* > 100 µM

*Q* Param item = Nc1nc2c(c3cnccc13)C(c1cccc(Cl)c1)Cc1cnccc1-2 (stereo unspecified) ; retrieve measured TGI.
*A* 4.65 µM

*Q* Param item = O=C(Nc1ccc(Br)cc1F)c1cc(Br)ccc1O ; retrieve measured TGI.
*A* 23.1 µM

*Q* Param item = Cc1nc(C)c(N2CCN(C#N)CC2)c(=O)[nH]1 ; retrieve measured TGI.
*A* > 100 µM

*Q* Param item = C=C(CN1CCN(c2cccc(F)c2)CC1)c1ccc(C(=O)Nc2ccccc2N)cc1 ; retrieve measured TGI.
*A* 7.16 µM

*Q* Param item = COc1cc2c3c(c4c5ccccc5[nH]c4c2c(OC)c1OC)C(=O)N(CCN1CCCCC1)C3=O ; retrieve measured TGI.
*A* 2.54 µM

*Q* Param item = CCc1n[nH]c(=O)n1NC(=O)/C=C\C(=O)O ; retrieve measured TGI.
*A* > 100 µM

====

- Test system: EKVX NSCLC
- Assay Protocol: NCI tumour cell line growth inhibition, 48 h
Measured Parameter: TGI

*Q* Param item = CC[C@@]1(O)C(=O)OCc2c1cc1n(c2=O)Cc2c-1nc1ccccc1c2/C=N/OC(C)(C)C ; retrieve measured TGI.
*A* 23.8 µM

*Q* Param item = C[C@]12CC[C@H]3[C@@H](C[C@@H]4N=C(c5ccc(O)cc5)S[C@@]45C[C@H](O)CC[C@]35C)[C@@H]1CC[C@@H]2O ; retrieve measured TGI.
*A* > 100 µM

*Q* Param item = CC1=NN(C(=O)Cc2ccccc2)C(=O)/C1=C\c1ccco1 ; retrieve measured TGI.
*A* > 100 µM

*Q* Param item = O=C1O[C@H]2[C@@H]3OC(=O)c4cc(O)c(O)c(O)c4-c4c(cc(O)c(O)c4O)C(=O)OC[C@H]2O[C@@H](OC(=O)c2cc(O)c(O)c(O)c2)[C@@H]3OC(=O)c2cc(O)c(O)c3c2[C@@H]2C1=CC(=O)C(O)(O)C2(O)O3 (some centres undefined) ; retrieve measured TGI.
*A* > 100 µM

*Q* Param item = Cc1ccc(C(=O)NC(C)(C)C)cc1N=NN(C)C ; retrieve measured TGI.
*A* > 100 µM

*Q* Param item = CC(C)(O)[C@H](CCO)O[Si](c1ccccc1)(c1ccccc1)C(C)(C)C ; retrieve measured TGI.
*A* 29.6 µM

*Q* Param item = NC(N)=Nc1nc2ccccc2[nH]1 ; retrieve measured TGI.
*A* > 150 µg/mL

*Q* Param item = CN1CCN(c2ccc(-n3cc(C(=O)O)c(=O)c4cc(F)c(N5CCN(C)CC5)cc43)nc2)CC1 ; retrieve measured TGI.
*A* > 100 µM

*Q* Param item = Nc1nc2c(c3cnccc13)C(c1cccc(Cl)c1)Cc1cnccc1-2 (centres undefined) ; retrieve measured TGI.
*A* 15.1 µM
